Target: PI3Kα (Homo sapiens (Human), UniProt P42336)
Sequence (P42336 whole entry, species assumed): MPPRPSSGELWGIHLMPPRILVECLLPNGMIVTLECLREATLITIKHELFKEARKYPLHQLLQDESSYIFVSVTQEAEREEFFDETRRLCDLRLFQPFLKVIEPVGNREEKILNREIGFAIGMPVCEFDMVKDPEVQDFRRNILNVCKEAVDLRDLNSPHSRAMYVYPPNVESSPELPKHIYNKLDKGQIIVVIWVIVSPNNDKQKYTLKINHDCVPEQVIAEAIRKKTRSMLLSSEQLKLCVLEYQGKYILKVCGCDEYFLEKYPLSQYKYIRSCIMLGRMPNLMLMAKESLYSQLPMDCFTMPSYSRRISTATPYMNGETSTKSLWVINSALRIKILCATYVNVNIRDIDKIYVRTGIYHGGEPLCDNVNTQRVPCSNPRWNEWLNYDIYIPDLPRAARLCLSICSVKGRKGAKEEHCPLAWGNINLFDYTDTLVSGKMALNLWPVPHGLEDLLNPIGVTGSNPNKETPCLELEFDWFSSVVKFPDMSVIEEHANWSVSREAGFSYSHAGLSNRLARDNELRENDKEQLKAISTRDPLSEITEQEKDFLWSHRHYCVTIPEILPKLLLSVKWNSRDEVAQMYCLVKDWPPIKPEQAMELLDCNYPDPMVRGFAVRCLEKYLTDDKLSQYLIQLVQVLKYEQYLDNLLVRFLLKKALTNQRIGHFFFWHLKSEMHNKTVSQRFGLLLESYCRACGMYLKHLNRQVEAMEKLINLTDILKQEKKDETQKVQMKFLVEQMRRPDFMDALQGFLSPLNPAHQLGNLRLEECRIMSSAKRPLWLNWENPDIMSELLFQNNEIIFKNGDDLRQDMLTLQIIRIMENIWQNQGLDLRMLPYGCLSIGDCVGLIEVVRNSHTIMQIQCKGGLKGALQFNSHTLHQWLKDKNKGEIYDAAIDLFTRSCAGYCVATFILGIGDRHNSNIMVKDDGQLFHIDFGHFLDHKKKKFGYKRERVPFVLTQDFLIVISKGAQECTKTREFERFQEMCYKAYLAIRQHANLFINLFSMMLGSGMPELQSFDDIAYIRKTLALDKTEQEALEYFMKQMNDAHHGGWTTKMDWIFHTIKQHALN
Sequence (P27986 whole entry partner, species assumed): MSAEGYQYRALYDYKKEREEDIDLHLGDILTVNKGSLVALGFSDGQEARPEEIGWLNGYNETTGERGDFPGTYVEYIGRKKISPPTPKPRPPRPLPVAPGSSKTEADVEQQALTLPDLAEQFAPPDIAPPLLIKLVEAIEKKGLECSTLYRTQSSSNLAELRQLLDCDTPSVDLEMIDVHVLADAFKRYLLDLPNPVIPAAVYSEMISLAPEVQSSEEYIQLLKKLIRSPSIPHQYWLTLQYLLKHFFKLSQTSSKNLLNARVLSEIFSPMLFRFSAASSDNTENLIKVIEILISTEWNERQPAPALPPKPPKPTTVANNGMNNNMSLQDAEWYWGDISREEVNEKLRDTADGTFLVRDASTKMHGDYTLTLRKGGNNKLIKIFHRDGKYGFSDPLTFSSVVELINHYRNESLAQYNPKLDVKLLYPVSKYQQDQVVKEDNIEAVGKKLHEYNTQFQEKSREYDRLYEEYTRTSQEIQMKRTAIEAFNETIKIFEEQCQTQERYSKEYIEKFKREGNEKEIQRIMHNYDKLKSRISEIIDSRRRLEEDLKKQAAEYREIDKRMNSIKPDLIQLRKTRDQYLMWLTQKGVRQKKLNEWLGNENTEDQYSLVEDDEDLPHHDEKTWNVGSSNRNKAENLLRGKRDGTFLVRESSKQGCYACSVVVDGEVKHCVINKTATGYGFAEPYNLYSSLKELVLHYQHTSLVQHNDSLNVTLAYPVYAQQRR
Assay: PI3Kα enzymatic inhibitory activity IC50 assay
Type: biochemical
Details: selectivity ratio
endpoint_name: α/δ (ratio of IC50 values against PI3Kα to PI3Kδ)
Numbers only.

Solved entries (count: 4):
molecule: COc1ncc(-c2nc(N3CCOCC3)nc3c(CN4CCC(N5CCCCC5)CC4)cc(F)cc23)cc1NS(C)(=O)=O [Compound 7]
system_tested: PI3Kα (Homo sapiens (Human), UniProt P42336)
observed_value: 130
//
molecule: CS(=O)(=O)N1CCN(Cc2cccc3c(-c4cccc5[nH]ncc45)nc(N4CCOCC4)nc23)CC1 [Compound 6]
system_tested: PI3Kα (Homo sapiens (Human), UniProt P42336)
observed_value: 2.4
//
molecule: COc1ncc(-c2nc(N3CCOCC3)nc3c(O[C@@H]4CCOC4)cc(F)cc23)cc1NS(C)(=O)=O [Compound 30]
system_tested: PI3Kα (Homo sapiens (Human), UniProt P42336)
observed_value: 15
//
molecule: COc1ncc(-c2nc(N3CCOCC3)nc3c(CN4CCC(OC)CC4)cccc23)cc1NS(C)(=O)=O [Compound 2]
system_tested: PI3Kα (Homo sapiens (Human), UniProt P42336)
observed_value: 368

// sample CS(=O)(=O)N1CCN(Cc2cccc3c(-c4cnc(N)nc4)nc(N4CCOCC4)nc23)CC1 [Compound 5] , its α/δ (ratio of IC50 values against PI3Kα to PI3Kδ) was 1
